Can you tell me inhibition at 10 µM for the items I'm about to list?
- protocol description: Antiproliferative activity against HEK293T cells assessed as inhibition of cell proliferation at 10 uM by MTT assay
- Type: cell-based, HEK-293T
- test conditions: human
Answers are plain numbers, in %.

Would you please look over these solved cases?
{"columns": ["structure smiles string", "inhibition at 10 µM / %"],
 "data": [
  ["O=S(=O)(c1ccc(-c2cnc(C3CC3)o2)cc1)N1CCc2cc(F)ccc21", 25.7],
  ["CS(=O)(=O)c1ccc2c(c1)CCN2S(=O)(=O)c1ccc(-c2cnc(C3CC3)o2)cc1", 6.54],
  ["O=S(=O)(c1ccc(-c2nnc(C3CC3)o2)cc1)N1CCc2ccccc21", -13.8]
]}

Notebook: O=S(=O)(c1ccc(-c2cnc(C3CC3)o2)cc1)N1CC2(CCCCC2)c2ccccc21 , inhibition at 10 µM read as 76
